experiment: in vitro; conditions: human
property: CC50 (nM)
Express it in nM; write the number only.

CO[C@H]1[C@@H](O)C[C@H](O[C@H]2[C@@H](O)C[C@H](O[C@H]3[C@@H](O)C[C@H](O[C@H]4CC[C@@]5(C)[C@H](CC[C@@H]6[C@@H]5C[C@@H](O)[C@]5(C)[C@@H](C7=CC(=O)OC7)CC[C@]65O)C4)O[C@@H]3C)O[C@@H]2C)O[C@@H]1C | 159
C[C@@H]1C[C@@H]([C@H](O)CC2CC(=O)NC(=O)C2)C(=O)[C@@H](C)C1 [Cycloheximide] | 1470
C=C(C)[C@]12C[C@@H](C)[C@@]34O[C@](Cc5ccccc5)(O[C@@H]1[C@@H]3C=C(COC(=O)Cc1ccc(O)c(OC)c1)C[C@]1(O)C(=O)C(C)=C[C@@H]41)O2 | 7170

Documented CC50 of CC[C@H]1CN2CCc3cc(OC)c(OC)cc3[C@@H]2C[C@@H]1C[C@H]1NCCc2cc(O)c(OC)cc21 : 212

---

Recorded EC50 by entry
tested on: SARS-CoV-2; test: microbe, parasite or virus in culture; settings: Severe acute respiratory syndrome coronavirus 2, HeLa-ACE2, 24 h, read-out: CoV-2 EC50 [μM] (Geomeans, n ≥ 2)
Counter-ions that a name gives are not always drawn.
API: value field is a number in µM; no unit string.

Here are 5 compounds together with their reported answers.
CCCCC1CCc2cc(O)cc3c(CCN4CCN(c5cc(C)ccn5)CC4)c(C)n1c23 (stereo not shown) | 2.5
O=S(=O)(Nc1ccc(CCNC[C@H](O)c2cccnc2)cc1)c1ccc(-c2nc(-c3ccc(C(F)(F)F)cc3)cs2)cc1 | 1.04
CCCN1CCN(c2ccc(C(=O)NC3(C(=O)NCC#N)CCCCC3)cc2)CC1 | 5.11
O=C(c1ccc(OCCN2CCCCC2)cc1)c1c(-c2ccc(O)cc2)sc2cc(O)ccc12 [raloxifene hydrochloride] | 4.48
CCN(CCO)CCCC(C)Nc1ccnc2cc(Cl)ccc12 (stereo not shown) [hydroxychloroquine, nasal, hydroxychloroquine] | 0.458

Turning now to a further compound:
Form: compound = COC(=O)C1=C(C)NC(C)=C(C(=O)OCCCCNC[C@@H](O)COc2ccccc2)C1c1cccc([N+](=O)[O-])c1 (stereo partly shown) ; EC50 = 2.88

---

test system: Calu-3 cells; details: read-out: Calu-3 Uninfected Tox CC50; Table 4; aggregated data, Geomean, n = 3
property: CC50 (µM)
Lab book: enter the figure in µM, no units written.

Examples with their reported CC50 follow.
Nc1nccc2c1ncn2C1C=C(CO)C(O)C1O (centres unmarked) | 10.3
COC1(c2cc(F)cc(OCc3ccc4c(ccc(=O)n4C)c3)c2)CCOCC1 | 14.4
Cc1nc2c(s1)C(=O)C=C(NCCN(C)C)C2=O | 5.96
CSc1ncnc2c1ncn2[C@@H]1O[C@H](CO)[C@@H](O)[C@H]1O [6-Methyl mercaptopurineriboside] | 1.2
CN(C)C(C(=O)Nc1ccc2c(=O)[nH]ccc2c1)c1ccsc1 (centres unmarked) | 18.9

The record that follows has no CC50 shown yet.
Note to self: CC50 recorded for CC(=O)OC[C@H]1O[C@@H]([S-])[C@H](OC(C)=O)[C@@H](OC(C)=O)[C@@H]1OC(C)=O.CCP(CC)CC.[Au+] was 3.13

---

assay: in vitro; conditions: human
property: CC50

O=C(Nc1ccc(Cl)c(S(=O)(=O)N2CCNCC2)c1O)Nc1cccc(F)c1Cl [Elubrixitosylate] | > 29.6 µM
CCCCCCC1C(=O)O[C@H](C)[C@H](NC(=O)c2cccc(NC=O)c2O)C(=O)O[C@@H](C)[C@@H]1OC(=O)CC(C)C (stereo partly drawn) [Antimycin A] | 0.608 µM
N=C(N)Nc1ccc(C(=O)Oc2ccc(S(N)(=O)=O)cc2)cc1 | > 29.9 µM
COc1ccc2c(c1)[C@]1(CC1c1ccc3c(/C=C/c4ccc(CN5C[C@@H](C)O[C@@H](C)C5)cc4)n[nH]c3c1)C(=O)N2 (stereo partly drawn) | > 19.8 µM
CC1OC(O[C@H]2CC[C@@]3(C=O)[C@H](CC[C@@H]4[C@@H]3CC[C@]3(C)[C@@H](C5=CC(=O)OC5)CC[C@]43O)C2)C(O)C(O)C1O (stereo partly drawn) [Peruvoside (analog)] | 1.41 µM

Cn1c(C#N)ccc1-c1ccc2c(c1)C(C)(C)OC(=S)N2 has a reported CC50 of 19.3 µM

---

Below are compounds with their HeLa-ACE2 CC50/CoV-2 EC50 as measured on SARS-CoV-2.
Keep it simple and answer with nothing but the number.

COc1ccc(C2(c3ccccc3)NC(=O)N(CCCN3CCC(c4ccccc4)CC3)C2=O)cc1 (stereo not drawn) [ROPITOIN] | 5.28
C[C@H]1O[C@@H](O[C@H]2[C@@H](O)C[C@@H](O[C@@H]3[C@@H](O)C[C@H](O[C@H]4CC[C@@]5(C)[C@H](CC[C@@H]6[C@@H]5C[C@@H](O)[C@]5(C)[C@@H](C7=CC(=O)OC7)CC[C@]65O)C4)O[C@@H]3C)O[C@@H]2C)C[C@H](O)[C@@H]1O (stereo in doubt) [Digoxin] | 0.72

Per the records, this compound ( Oc1ccc(Nc2ccnc3cc(Cl)ccc23)cc1CN1CCCC1 [AMOPYROQUINE] ) has HeLa-ACE2 CC50/CoV-2 EC50 equal to 19.02

---

tested on: SARS-CoV-2; experiment: Checkerboard synergy study with remdesivir (ZIP model, synergyfinder); assay type: cell-based; conditions: Table 3
Structures can show the parent of a compound that is named as a salt.
# key: entry, value: Synergy score with remdesivir (δ)

Known results for molecules:
CCN(CCO)CCCC(C)Nc1ccnc2cc(Cl)ccc12 (stereo not drawn) [hydroxychloroquine, nasal, hydroxychloroquine] | −1.572
Nc1nc(Nc2ccc3c(c2)CC[C@@H](N2CCCC2)CC3)nn1-c1cc2c(nn1)-c1ccccc1CCC2 | 7.223
Cc1cccc(/C=N/Nc2cc(N3CCOCC3)nc(OCCc3ccccn3)n2)c1 | 3.57
COC(=O)C1=C(C)NC(C)=C(C(=O)OCCN2CCN(C(c3ccccc3)c3ccccc3)CC2)C1c1cccc([N+](=O)[O-])c1 (stereo not drawn) | −4.727
CC(C)(C)Cn1c(N)nc2ccc(-c3[nH]c(C(C)(C)C)nc3-c3ccc(F)cc3)nc21 [Ralimetinib mesylate/LY2228820, Ralimetinib mesylate] | −0.846
COc1ccc2cc1Oc1ccc(cc1)C[C@H]1c3cc(c(OC)cc3CCN1C)Oc1c(OC)c(OC)cc3c1[C@H](C2)N(C)CC3 | −3.61
CCCCN(CCCC)CCC(O)c1cc2c(Cl)cc(Cl)cc2c2cc(C(F)(F)F)ccc12 (stereo not drawn) [Halofantrine HCl] | −3.509
CCN(CC)CCCNc1ccnc2cc(Cl)ccc12 | −1.77

Now consider the entry below.
Entry CN1CCN(c2ccc(C(=O)NCc3cnc(C#N)nc3NCC(C)(C)C)cc2)CC1 under SARS-CoV-2 had Synergy score with remdesivir (δ) of 2.955

---

Examples of compounds with documented HeLa-ACE2 CC50/CoV-2 EC50 follow.
tested on: SARS-CoV-2
Lab note: record the figure alone, no unit after it.

COC(=O)C1=C(C)NC(C)=C(C(=O)OCCCCNC[C@@H](O)COc2ccccc2)C1c1cccc([N+](=O)[O-])c1 (stereo partly shown) | 7.01

Kindly note the recorded HeLa-ACE2 CC50/CoV-2 EC50 for COCC12CN(S(=O)(=O)c3ccc4cc(Cl)ccc4c3)CC(=O)N1CC1(CCN(c3ccncc3)CC1)O2 (stereo not shown) , which is 6.81

---

test: in vitro; details: human
# if measured CC50 < 9 µM: Condition met  # else: Condition not met

Worked examples, 3 compounds total:
COC(=O)[C@]12CCC(C)(C)C[C@H]1[C@H]1C(=O)C=C3[C@@]4(C)C=C(C#N)C(=O)C(C)(C)[C@@H]4CC[C@@]3(C)[C@]1(C)CC2 | Condition met
CC(=O)N1C[C@H](O)C[C@H]1C(=O)N[C@@H](CCCNC(=N)N)C(=O)c1nc2ccccc2s1 | Condition not met
CNC(=O)n1ccc2cc(Oc3ccnc(NC(=O)c4ccc(C5CCN(CCO)CC5)cc4)c3)c(OCCOC)cc21 | Condition not met

Here's the next entry for you.
Lookup: I wonder whether CC(=O)O[C@H]1C[C@H](O[C@H]2[C@@H](O)C[C@H](O[C@H]3[C@@H](O)C[C@H](O[C@H]4CC[C@@]5(C)[C@H](CC[C@@H]6[C@@H]5C[C@@H](O)[C@]5(C)[C@@H](C7=CC(=O)OC7)CC[C@]65O)C4)O[C@@H]3C)O[C@@H]2C)O[C@H](C)[C@H]1O[C@@H]1O[C@H](CO)[C@@H](O)[C@H](O)[C@H]1O [LANATOSIDE] has CC50 below 9 µM. Can you tell?
Found: Condition met
